target.desc: T1, LIN7C, Q9NUP9
T1 sequence (Q9NUP9 88-185, limits assumed, looked up): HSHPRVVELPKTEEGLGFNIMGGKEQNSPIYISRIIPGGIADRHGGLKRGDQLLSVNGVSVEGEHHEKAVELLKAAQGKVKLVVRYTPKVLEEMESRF
test.method.notes: holdup assay
Design: key: below the threshold = too weak to quantify, mostly under pKd 3.1 to 4
condition: plain residues with an end cap or a label only (N-terminal biotin on a linker: ado-ado)
measured.metric: pKd

Consider the following illustrative entries.
TNSRHGETTV [FZD2, Q14332]; 4.6
TISFTQTSQF [SLC1A1, P43005]; below the threshold
MHIQEKGFHV [EPHA6, Q9UF33]; below the threshold
ILRKSTTTTV [PRR16, Q569H4]; below the threshold

For every record below, what is its pKd?
1. DDASLPVSDV [PLEKHA1, Q9HB21]
2. LESTTVGTSV [KARS1, Q15046]
3. PYSESDDDWC [CACNA1A, O00555]
4. KRPEMTSSSV [MUC3B, MUC3A, Q02505;Q9H195]

[4.01, "below the threshold", "below the threshold", "below the threshold"]

For every record below, what is its pKd?
1. RSSGGDDFWF [KCNV1, Q6PIU1]
2. EPQYQPGENL [SRC, P12931]
3. NVYGIESVKI [GRIA2, P42262]
4. APIAGFSSFV [SDK2, Q58EX2]
5. ARSAAASNYV [CLDN4, O14493]

[4.1, "below the threshold", "below the threshold", "below the threshold", 3.99]

For every record below, what is its pKd?
1. NTLNRKTTPV [CACNG8, Q8WXS5]
2. QKAPTKEFYA [SDC2, P34741]
3. PSVGSKKTVL [REELD1, A0A1B0GV85]
4. DFLSTFHIRI [CIB2, O75838]
5. PSHPRLQTHV [KIRREL2, Q6UWL6]

below the threshold
below the threshold
below the threshold
below the threshold
4

For every record below, what is its pKd?
1. PPGKHLVTEV [KCNA7, Q96RP8]
2. AEASVACSLC [PTGIR, P43119]
3. QSYPSKHDYV [CLDN18, P56856]
4. REEPDHSTEV [CCRL2, O00421]
5. STKRKLASAV [NCF1, P14598]
6. MQHQRTHTRV [ZSCAN30, Q86W11]
7. QRPYRRGSEI [KCNJ18, B7U540]

1: below the threshold; 2: below the threshold; 3: below the threshold; 4: below the threshold; 5: below the threshold; 6: below the threshold; 7: 3.92
